The reported numbers originate from patent US6818643B1.

target.entity: FKBP12 (Homo sapiens, UniProt P62942)
Sequence (P62942 whole entry, species assumed): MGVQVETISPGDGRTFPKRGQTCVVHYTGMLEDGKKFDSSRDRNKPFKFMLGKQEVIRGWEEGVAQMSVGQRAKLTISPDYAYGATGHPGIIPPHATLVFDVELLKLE
test: Fluorescence Polarization (FP) Assay of FKBP12 Binding
experimental.conditions: Table 1; rotamase Ki derived from FP assay
readout: Ki
Please provide the amount together with its unit, number first.

Answered examples (5):
- COc1cc(C(=O)C(=O)N2C3CCCC2C(=O)N(CCCCCc2ccccc2)C3)cc(OC)c1OC (stereo not shown): 152 nM
- COc1cc(C(=O)C(=O)N2C3CCCC2C(=O)N(CCCc2ccccc2)C3)cc(OC)c1OC (stereo not shown): 60 nM
- COc1ccc(CCCCN2CC3CCCC(C2=O)N3C(=O)C(F)(F)c2cc(OC)c(OC)c(OC)c2)cc1OC (stereo not shown): 160 nM
- COc1ccc(CCCN2CC3CCCC(C2=O)N3C(=O)C(=O)c2cc(OC)c(OC)c(OC)c2)cc1OC (stereo not shown): 150 nM
- COc1cc(CCCN2C[C@H]3CC[C@@H](C2=O)N3C(=O)C(F)(F)c2cc(OC)c(OC)c(OC)c2)cc(OC)c1OC: 598 nM

Return reported Ki for target or system FKBP12 (Homo sapiens, UniProt P62942), item COc1cc(CCCN2C[C@H]3CC[C@@H](C2=O)N3C(=O)C(=O)c2cc(OC)c(OC)c(OC)c2)cc(OC)c1OC . 242 nM

State recorded Ki with FKBP12 (Homo sapiens, UniProt P62942), entry COc1ccc(CCCN2CC3CCCC(C2=O)N3C(=O)C(F)(F)c2cc(OC)c(OC)c(OC)c2)cc1OC (stereo not shown) , no comment. 360 nM

###

target.entity: FKBP12 (Homo sapiens)
test: Fluorescence Polarization (FP) Assay of FKBP12 Binding
experimental.conditions: Table 1; rotamase Ki derived from FP assay
Values of Ki strictly less than 100 nM map to 1 (yes), and values of at least 100 nM map to 0 (no).

Known results for molecules:
• COc1cc(C(=O)C(=O)N2[C@@H]3CC[C@H]2C(=O)N(CCCc2ccccc2)C3)cc(OC)c1OC = 0 (no)
• COc1ccc(CCCN2C[C@H]3CC[C@@H](C2=O)N3C(=O)C(=O)c2cc(OC)c(OC)c(OC)c2)cc1OC = 0 (no)
• COc1ccc(CCCCN2CC3CCCC(C2=O)N3C(=O)C(=O)c2cc(OC)c(OC)c(OC)c2)cc1OC (centres unmarked) = 0 (no)

Read the next record carefully.
Identify whether the molecule COc1cc(C(=O)C(=O)N2C3CCCC2C(=O)N(CCCCc2ccccc2)C3)cc(OC)c1OC (centres unmarked) records Ki below 100 nM. 1 (yes)

###

target.entity: FKBP12 (Homo sapiens)
test: Fluorescence Polarization (FP) Assay of FKBP12 Binding
experimental.conditions: Table 2; 1 μM compound; 100 nM fluorescent ligand, 200 nM FKBP12; read-out: % FP inhibition at 1 μM
readout: inhibition at 1 µM (%)
Report the value in % with no unit label.

// below: answered compounds
* COc1ccc(CCCC(CCCc2ccccc2)N2CC3CCC(C2=O)N3C(=O)C(=O)c2cc(OC)c(OC)c(OC)c2)cc1OC (centres unmarked) | 1
* COc1ccc(CCCC(CCCc2ccccc2)N2CC3CCCC(C2=O)N3C(=O)C(=O)c2cc(OC)c(OC)c(OC)c2)cc1OC (centres unmarked) | 1
* COc1cc(CCCC(CCCc2ccccc2)CN2CC3CCC(C2=O)N3C(=O)C(=O)c2cc(OC)c(OC)c(OC)c2)cc(OC)c1OC (centres unmarked) | 17
* COc1cc(C(=O)C(=O)N2C3CCC2C(=O)N(CC(CCCc2ccccc2)CCCc2ccccc2)C3)cc(OC)c1OC (centres unmarked) | 14

Fill in inhibition at 1 µM for record COc1cc(C(=O)C(=O)N2C3CCCC2C(=O)N(CC(CCCc2ccccc2)CCCc2ccccc2)C3)cc(OC)c1OC (centres unmarked) 17

Tell me its inhibition at 1 µM given COc1cc(CCCC(CCCc2ccccc2)CN2CC3CCCC(C2=O)N3C(=O)C(=O)c2cc(OC)c(OC)c(OC)c2)cc(OC)c1OC (centres unmarked) as the entry. 81

###

target.entity: FKBP12 (Homo sapiens, UniProt P62942)
test: Fluorescence Polarization (FP) Assay of FKBP12 Binding
experimental.conditions: Table 1; 1 μM compound; 100 nM fluorescent ligand, 200 nM FKBP12; read-out: % FP inhibition at 1 μM
Label 1 when inhibition at 1 µM >= 20%; otherwise -1.

Worked examples follow.
• CCC(C)(C)C(=O)C(=O)N1C2CCC1C(=O)N(CCCc1cc(OC)c(OC)c(OC)c1)C2 (stereo not drawn) = -1
• COc1cc(C(F)(F)C(=O)N2C3CCC2C(=O)N(CCCCc2ccccc2)C3)cc(OC)c1OC (stereo not drawn) = -1
• COc1ccc(CCCCN2CC3CCCC(C2=O)N3C(=O)C(=O)c2cc(OC)c(OC)c(OC)c2)cc1OC (stereo not drawn) = 1
• COc1cc(CCCN2C[C@H]3CC[C@@H](C2=O)N3C(=O)C(=O)c2cc(OC)c(OC)c(OC)c2)cc(OC)c1OC = 1
• COc1ccc(CCCN2C[C@H]3CC[C@@H](C2=O)N3C(=O)C(=O)c2cc(OC)c(OC)c(OC)c2)cc1OC = 1

Reported inhibition at 1 µM reaches at least 20% for COc1cc(C(=O)C(=O)N2C3CCC2C(=O)N(CCCOc2cccnc2)C3)cc(OC)c1OC (stereo not drawn) ? 1

Exam item: decide whether the reported inhibition at 1 µM for COc1cc(C(=O)C(=O)N2C3CCC2C(=O)N(CCCCc2ccccc2)C3)cc(OC)c1OC (stereo not drawn) is at least 20%. -1

Does the molecule COc1ccc(CCCCN2CC3CCC(C2=O)N3C(=O)C(=O)c2cc(OC)c(OC)c(OC)c2)cc1OC (stereo not drawn) have recorded inhibition at 1 µM that is 20% or more? -1

Could you verify whether the entry COC(=O)C(=O)N1C2CCCC1C(=O)N(CCCc1cc(OC)c(OC)c(OC)c1)C2 (stereo not drawn) shows inhibition at 1 µM of no less than 20%? -1

Identify whether the reported inhibition at 1 µM of the following molecule is 20% or greater: COc1ccc(CCCN2CC3CCCC(C2=O)N3C(=O)C(=O)c2cc(OC)c(OC)c(OC)c2)cc1OC (stereo not drawn) 1

Does the reported inhibition at 1 µM for COc1ccc(CCCCN2CC3CCC(C2=O)N3C(=O)C(F)(F)c2cc(OC)c(OC)c(OC)c2)cc1OC (stereo not drawn) fall at or above the 20% mark? -1

###

target.entity: UniProtKB P62942
test: Fluorescence Polarization (FP) Assay of FKBP12 Binding
experimental.conditions: Table 2; rotamase Ki derived from FP assay
Param label: returns TRUE when Ki < 50 nM, returns FALSE otherwise, including exact equality.

• COc1ccc(CCC(Cc2ccc(OC)c(OC)c2)CN2CC3CCCC(C2=O)N3C(=O)C(=O)c2cc(OC)c(OC)c(OC)c2)cc1OC (stereo not shown) = TRUE

I'd appreciate it if you could check whether COc1ccc(CCC(Cc2ccc(OC)c(OC)c2)CN2C[C@H]3CC[C@@H](C2=O)N3C(=O)C(=O)c2cc(OC)c(OC)c(OC)c2)cc1OC (stereo partly shown) has Ki smaller than 50 nM. FALSE

Field: below-cutoff. Rule: recorded Ki strictly less than 50 nM. Subject: COc1ccc(CCC(CCc2ccccc2)CN2C[C@H]3CC[C@@H](C2=O)N3C(=O)C(=O)c2cc(OC)c(OC)c(OC)c2)cc1OC (stereo partly shown) FALSE

Lab note: confirm whether the reported Ki for this compound is below 50 nM, equality not counting. compound: COc1ccc(CCCC(CCCc2ccc(OC)c(OC)c2)CN2C[C@H]3CC[C@@H](C2=O)N3C(=O)C(=O)c2cc(OC)c(OC)c(OC)c2)cc1OC TRUE

Given the entry COc1ccc(CCCC(CCCc2ccc(OC)c(OC)c2)CN2CC3CCCC(C2=O)N3C(=O)C(=O)c2cc(OC)c(OC)c(OC)c2)cc1OC (stereo not shown) , would its reported Ki be below 50 nM? TRUE

Hello, is Ki of the following compound strictly smaller than 50 nM? COc1cc(CCCC(CCCc2ccccc2)CN2CC3CCCC(C2=O)N3C(=O)C(=O)c2cc(OC)c(OC)c(OC)c2)cc(OC)c1OC (stereo not shown) TRUE

###

Some compounds, each annotated with its measured inhibition at 1 µM.
target.entity: FKBP12 (Homo sapiens, UniProt P62942)
test: Fluorescence Polarization (FP) Assay of FKBP12 Binding
experimental.conditions: Table 2; 1 μM compound; 100 nM fluorescent ligand, 200 nM FKBP12; read-out: % FP inhibition at 1 μM
Number in %, nothing else.

• COc1cc(CCCC(CCCc2ccccc2)CN2CC3CCCC(C2=O)N3C(=O)C(F)(F)c2cc(OC)c(OC)c(OC)c2)cc(OC)c1OC (centres unmarked) [Example 38] = 50
• COc1cc(C(F)(F)C(=O)N2C3CCC2C(=O)N(C(CCc2ccccc2)CCc2ccccc2)C3)cc(OC)c1OC (centres unmarked) [Example 30] = 4
• COc1cc(C(F)(F)C(=O)N2C3CCCC2C(=O)N(CC(CCCc2ccccc2)CCCc2ccccc2)C3)cc(OC)c1OC (centres unmarked) [Example 37] = 4
• COc1cc(C(F)(F)C(=O)N2C3CCC2C(=O)N(CC(CCCc2ccccc2)CCCc2ccccc2)C3)cc(OC)c1OC (centres unmarked) [Example 33] = 7

Alright, here's another compound for you.
Recall the reported inhibition at 1 µM of COc1cc(CCCC(CCCc2ccccc2)CN2CC3CCC(C2=O)N3C(=O)C(F)(F)c2cc(OC)c(OC)c(OC)c2)cc(OC)c1OC (centres unmarked) [Example 34] on FKBP12 (Homo sapiens, UniProt P62942) and write it down. 11
